# credit: patent US20230159510A1

Test system: HCT116 WT cells
Experiment: HCT116 proliferation assay, WT cells (CellTiter-Glo, 6 days)
Type: cell-based
Details: Homo sapiens, HCT-116, 144 h, read-out: Prolif_HCT116-WT IC50
pIC50: −log10 of the molar value.
Class TRUE: pIC50 at least 6. Class FALSE: pIC50 below 6.

Data request: Quick check, pIC50 >= 6? `Cc1cc2cc(C(=O)N(Cc3ccc(C(F)(F)F)cn3)Cc3ncoc3C)ccc2nc1N`
Data returned: FALSE

Others:
Data request: Quick check, pIC50 >= 6? `Cc1cc2cc(C(=O)N(Cc3ccc(C(F)(F)F)cn3)CC(F)(F)F)ccc2nc1N`
Data returned: FALSE

Data request: Quick check, pIC50 >= 6? Cc1cc2cc(C(=O)N(Cc3ccc(C(F)(F)F)cn3)[C@@H]3CCCNC3=O)ccc2nc1N (single isomer, unassigned)
Data returned: FALSE

Data request: Quick check, pIC50 >= 6? `C[C@H](c1cccc(F)n1)N(Cc1ccc(C(F)(F)F)cn1)C(=O)c1cnc2nc(N)c(Br)cc2c1`
Data returned: FALSE

Data request: Quick check, pIC50 >= 6? Cc1cc2cc(C(=O)N(Cc3ccc(C(F)(F)F)cn3)[C@H](C)c3ncn(C)n3)c(F)cc2nc1N (single isomer, unassigned)
Data returned: TRUE

Data request: Quick check, pIC50 >= 6? `Cc1cc2cc(C(=O)N(Cc3ccc(Cl)cn3)[C@H](C)c3ncccn3)c(F)cc2nc1N`
Data returned: TRUE

Data request: Quick check, pIC50 >= 6? CO[C@H](CN(Cc1ccc(C(F)(F)F)cn1)C(=O)c1ccc2nc(N)c(C)cc2c1)C(F)(F)F (single isomer, unassigned)
Data returned: FALSE
